Tested on: Colo205 cell line
protocol notes: Colo205 cell proliferation assay (MTT assay, WST-8 readout)
Format: cell-based
test context: IC50 values of growth inhibition in Colo 205 cells; 72 hours
pIC50: −log10 of the molar value.
quantity name: pIC50

Send back Colo205 cell line pIC50 of Cc1cc(-c2n[nH]c3ccc(-c4ccn([C@@H](C)c5ccnc(C(F)(F)F)c5)c(=O)c4)cc23)ccn1 [Example 142A] only.
5.30 to 6.00

---

measured on: human ERK2 (Homo sapiens, UniProt P28482)
Construct: recombinantly expressed as GST-tagged full-length protein purified from E. coli; GST
Sequence (P28482 whole entry): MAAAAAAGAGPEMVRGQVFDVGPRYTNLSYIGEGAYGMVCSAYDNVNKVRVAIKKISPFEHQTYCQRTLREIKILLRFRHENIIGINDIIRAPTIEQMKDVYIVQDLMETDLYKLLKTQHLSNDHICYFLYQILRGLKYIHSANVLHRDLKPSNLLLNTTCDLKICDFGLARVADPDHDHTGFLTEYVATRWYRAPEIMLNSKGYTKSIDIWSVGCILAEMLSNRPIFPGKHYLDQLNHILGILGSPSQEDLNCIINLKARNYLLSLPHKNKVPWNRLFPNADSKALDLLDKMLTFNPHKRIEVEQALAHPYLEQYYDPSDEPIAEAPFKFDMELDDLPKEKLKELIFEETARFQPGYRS
protocol notes: LanthaScreen TR-FRET enzymatic assay, ERK2
test context: IC50 values of ERK2 biochemical activity; 5 μM ATP, 400 nM ATF2-GFP substrate
quantity name: IC50

- compound: "Cc1cc(-c2n[nH]c3ccc(-c4ccn(Cc5cc(F)cc(Cl)c5)c(=O)c4)cc23)ccn1"
  IC50: "< 10 nM"
- compound: "CC(C)(O)c1cc(-c2n[nH]c3ccc(-c4ccn([C@H](CO)c5ccc(F)c(Cl)c5)c(=O)c4)cc23)ccn1"
  IC50: "< 10 nM"
- compound: "Cn1cc(-c2n[nH]c3ccc(-c4ccn([C@H](CO)c5cccc(C(F)(F)F)c5)c(=O)c4)cc23)cn1"
  IC50: "< 10 nM"
- compound: "Cc1cc(-c2n[nH]c3ccc(-c4ccn(Cc5cccc(Cl)c5F)c(=O)c4)cc23)ccn1"
  IC50: "< 10 nM"
- compound: "O=c1cc(-c2ccc3[nH]nc(-c4ccc(F)cc4)c3c2)ccn1Cc1ccnc(C(F)(F)F)c1"
  IC50: "< 10 nM"

For the compound CC(c1cc(F)cc(Br)c1)n1ccc(-c2ccc3[nH]nc(C4CCOCC4)c3c2)cc1=O (stereo not drawn) , give its reported IC50.
< 10 nM

Retrieve IC50 measured for O=c1cc(-c2ccc3[nH]nc(C4CCOCC4)c3c2)ccn1[C@H](CO)c1cc(F)cc(Br)c1 and print it.
< 10 nM

Fill in reported IC50 for this entry: Cn1cc2cc(-c3n[nH]c4ccc(-c5ccn([C@H](CO)c6cc(F)cc(Br)c6)c(=O)c5)cc34)ccc2n1
< 10 nM

---

Recorded IC50, one value per entry.
measured on: human ERK2 (Homo sapiens)
Construct: recombinantly expressed as GST-tagged full-length protein purified from E. coli; GST
protocol notes: LanthaScreen TR-FRET enzymatic assay, ERK2
test context: IC50 values of ERK2 biochemical activity; 5 μM ATP, 400 nM ATF2-GFP substrate

- compound: "CNc1n[nH]c2ccc(-c3ccn([C@H](CO)c4cccc(Cl)c4)c(=O)c3)cc12 [Example 5]"
  IC50: "10 to 50 nM"
- compound: "CCOc1cc(-c2n[nH]c3ccc(-c4ccn([C@H](CO)c5cc(F)cc(Br)c5)c(=O)c4)cc23)ccn1 [Example 119]"
  IC50: "< 10 nM"

Indicate the recorded IC50 value for this compound: Cn1cc(-c2n[nH]c3ccc(-c4ccn([C@H](CO)c5cc(F)cc(Br)c5)c(=O)c4)cc23)ccc1=O [Example 120]
< 10 nM

Determine its reported IC50: Nc1n[nH]c2ccc(-c3ccn([C@H](CO)c4cccc(Cl)c4)c(=O)c3)cc12 [Example 11]
10 to 50 nM

Please indicate IC50 recorded for O=c1cc(-c2ccc3[nH]nc(-c4ccc5ncsc5c4)c3c2)ccn1[C@H](CO)c1cc(F)cc(Br)c1 [Example 114]
< 10 nM

Supply IC50 value. Item: CC(C)Oc1ccc(-c2n[nH]c3ccc(-c4ccn([C@H](CO)c5ccc(F)c(Cl)c5)c(=O)c4)cc23)cn1 [Example 34]
10 to 50 nM

Supply reported IC50 belonging to this compound: Cn1cc(-c2n[nH]c3ccc(-c4ccn(Cc5cccc(C(F)(F)F)c5)c(=O)c4)cc23)cn1 [Example 91]
< 10 nM

---

# Lookup of reported IC50 keyed by entry
measured on: human ERK2 (Homo sapiens, UniProt P28482)
Construct: recombinantly expressed as GST-tagged full-length protein purified from E. coli; GST
protocol notes: LanthaScreen TR-FRET enzymatic assay, ERK2
test context: IC50 values of ERK2 biochemical activity; 5 μM ATP, 400 nM ATF2-GFP substrate

Some molecules with recorded IC50:
- structure smiles string: "CC(=O)Nc1c(F)cccc1Cn1ccc(-c2ccc3[nH]nc(-c4ccnc(C)c4)c3c2)cc1=O"
  assay result: "< 10 nM"
- structure smiles string: "Cc1cc(-c2n[nH]c3ccc(-c4ccn(Cc5cccc(F)c5N)c(=O)c4)cc23)ccn1"
  assay result: "< 10 nM"
- structure smiles string: "Cn1ccc(-c2n[nH]c3ccc(-c4ccn([C@H](CO)c5cc(F)cc(Br)c5)c(=O)c4)cc23)cc1=O"
  assay result: "< 10 nM"
- structure smiles string: "CCOc1ccc(-c2n[nH]c3ncc(-c4ccn([C@H](CO)c5cc(F)cc(Br)c5)c(=O)c4)cc23)cn1"
  assay result: "< 10 nM"

State its IC50 for this molecule: Cc1n[nH]c2ccc(-c3ccn([C@H](CO)c4cccc(Cl)c4)c(=O)c3)cc12
10 to 50 nM

Give reported IC50 value for Cc1cc(-c2n[nH]c3cc(F)c(-c4ccn([C@H](CO)c5cccc(Cl)c5)c(=O)c4)cc23)ccn1
10 to 50 nM

Recall and state the measured IC50 for Cn1cc(-c2n[nH]c3ncc(-c4ccn([C@H](CO)c5cc(F)cc(Br)c5)c(=O)c4)cc23)cn1 .
< 10 nM

---

Entries annotated with measured IC50
measured on: human ERK2 (Homo sapiens, UniProt P28482)
Construct: recombinantly expressed as GST-tagged full-length protein purified from E. coli; GST
protocol notes: LanthaScreen TR-FRET enzymatic assay, ERK2
test context: IC50 values of ERK2 biochemical activity; 5 μM ATP, 400 nM ATF2-GFP substrate

Example compounds with recorded IC50:
- compound: "CCc1n[nH]c2ccc(-c3ccn([C@H](CO)c4cccc(Cl)c4)c(=O)c3)cc12 [Example 23]"
  measured on: "human ERK2 (Homo sapiens, UniProt P28482)"
  IC50: "50 to 100 nM"
- compound: "Cc1cc(-c2n[nH]c3ccc(-c4ccn(Cc5cccc(F)c5F)c(=O)c4)cc23)ccn1 [Example 81]"
  measured on: "human ERK2 (Homo sapiens, UniProt P28482)"
  IC50: "< 10 nM"
- compound: "O=c1cc(-c2ccc3[nH]nc(-c4cnn(CCO)c4)c3c2)ccn1[C@H](CO)c1ccc(F)c(Cl)c1 [Example 109]"
  measured on: "human ERK2 (Homo sapiens, UniProt P28482)"
  IC50: "< 10 nM"
- compound: "Cc1cc(-c2n[nH]c3cnc(-c4ccn(Cc5ccnc(C(F)(F)F)c5)c(=O)c4)cc23)ccn1 [Example 144]"
  measured on: "human ERK2 (Homo sapiens, UniProt P28482)"
  IC50: "< 10 nM"
- compound: "Cc1cc(-c2n[nH]c3ccc(-c4ccn(Cc5ccc(F)c(OC(F)(F)F)c5)c(=O)c4)cc23)ccn1 [Example 78]"
  measured on: "human ERK2 (Homo sapiens, UniProt P28482)"
  IC50: "10 to 50 nM"
- compound: "Cn1cc(-c2n[nH]c3ccc(-c4ccn(Cc5cccc(Br)c5)c(=O)c4)cc23)cn1 [Example 90]"
  measured on: "human ERK2 (Homo sapiens, UniProt P28482)"
  IC50: "< 10 nM"
- compound: "CC(C)Oc1ccc(-c2n[nH]c3ccc(-c4ccn([C@H](CO)c5cccc(Br)c5)c(=O)c4)cc23)cn1 [Example 44]"
  measured on: "human ERK2 (Homo sapiens, UniProt P28482)"
  IC50: "< 10 nM"
- compound: "COc1ccc(-c2n[nH]c3ccc(-c4ccn([C@H](CO)c5cc(F)cc(Br)c5)c(=O)c4)cc23)cn1 [Example 103]"
  measured on: "human ERK2 (Homo sapiens, UniProt P28482)"
  IC50: "< 10 nM"
- compound: "COc1ccc(-c2n[nH]c3cnc(-c4ccn([C@H](CO)c5cc(F)cc(Br)c5)c(=O)c4)cc23)cn1 [Example 124]"
  measured on: "human ERK2 (Homo sapiens, UniProt P28482)"
  IC50: "< 10 nM"
- compound: "Cc1cc(-c2n[nH]c3ccc(-c4ccn([C@H](CO)c5cccc(Cl)c5)c(=O)c4)nc23)ccn1 [Example 9]"
  measured on: "human ERK2 (Homo sapiens, UniProt P28482)"
  IC50: "< 10 nM"

Answer with the recorded IC50 of Cc1cc(-c2n[nH]c3ccc(-c4ccn([C@H](CO)c5cccc(Br)c5)c(=O)c4)cc23)ccn1 [Example 6] only.
< 10 nM

# return recorded IC50 for input Cc1cc(-c2n[nH]c3ccc(-c4ccn(Cc5cccc(I)c5)c(=O)c4)cc23)ccn1 [Example 57]
< 10 nM

Query IC50 for CC(C)Oc1ccc(-c2n[nH]c3ccc(-c4ccn([C@H](CO)c5cc(F)cc(Br)c5)c(=O)c4)cc23)cn1 [Example 40]
< 10 nM

Return value of IC50 for input Cc1cc(-c2n[nH]c3ccc(-c4ccn(Cc5cccc(F)c5NC(N)=O)c(=O)c4)cc23)ccn1 [Example 87] , no commentary.
< 10 nM

Please report IC50 for the following compound: CC(C)Oc1cc(-c2n[nH]c3ccc(-c4ccn(Cc5cc(F)cc(Br)c5)c(=O)c4)cc23)ccn1 [Example 10]
10 to 50 nM

Give IC50 for O=c1cc(-c2ccc3[nH]nc(C4CCOCC4)c3c2)ccn1Cc1ccnc(C(F)(F)F)c1 [Example 147]
< 10 nM

State, in one line, measured IC50 of Cc1cc(-c2n[nH]c3ccc(-c4ccn(Cc5cccc(F)c5NS(C)(=O)=O)c(=O)c4)cc23)ccn1 [Example 83]
< 10 nM

Report IC50, nothing else, for this compound: Cn1nccc1Nc1n[nH]c2ccc(-c3ccn([C@H](CO)c4cccc(Cl)c4)c(=O)c3)cc12 [Example 12]
10 to 50 nM

Write down IC50 measured for item Cc1cc(-c2n[nH]c3ccc(-c4ccn(Cc5cc(F)cc(F)c5)c(=O)c4)cc23)ccn1 [Example 79]
< 10 nM

For the compound O=c1cc(-c2ccc3[nH]nc(-c4cnn(C5CC5)c4)c3c2)ccn1[C@H](CO)c1ccc(F)c(Cl)c1 [Example 50] , report IC50.
< 10 nM

Please report the measured IC50 for Cc1cc(-c2n[nH]c3ccc(-c4cc(C)n(Cc5ccnc(C(F)(F)F)c5)c(=O)c4)cc23)ccn1 [Example 143]
< 10 nM

Give the reported IC50 for this compound. Cc1cc(-c2n[nH]c3ccc(-c4ccn(Cc5ccc(F)c(Br)c5)c(=O)c4)cc23)ccn1 [Example 56]
< 10 nM

Origin of values: patent US11242334B2
